- Target: KPC-14 (Klebsiella pneumoniae, UniProt Q9F663, DEL241-242)
- Construct: amplify the entire blaKPC-14 gene with the cloning primers; made in house; host or cells: E. coli BL21(DE3), pET24a(+)
- Sequence (Q9F663 25-240, added parts left off, stated change not applied): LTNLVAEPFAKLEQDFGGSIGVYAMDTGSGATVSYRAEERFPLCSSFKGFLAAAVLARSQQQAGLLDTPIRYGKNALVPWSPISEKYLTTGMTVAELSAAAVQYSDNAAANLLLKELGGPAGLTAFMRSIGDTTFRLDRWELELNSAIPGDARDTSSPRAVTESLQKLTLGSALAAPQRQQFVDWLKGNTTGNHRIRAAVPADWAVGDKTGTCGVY
- Assay comment: Steady-state kinetics of β-lactam hydrolysis by KPC-14
- Type: biochemical
- Run conditions: KPC-14
Measured endpoint: kcat (s⁻¹)

CO/N=C(\C(=O)N[C@@H]1C(=O)N2C(C(=O)[O-])=C(C[N+]3(C)CCCC3)CS[C@H]12)c1csc(N)n1 [Cefepime]; 0.61
CC1(C)S[C@@H]2[C@H](NC(=O)[C@H](N)c3ccccc3)C(=O)N2[C@H]1C(=O)O; 0.83
